For each entry below, report its Kd value.
# STUDY_TARGET: T1, P. vivax Reticulocyte Binding Protein 2b, residues 161–1454 (P. vivax strain Salvador I, UniProt A5K736 161-1454, DyLight 488 (NHS ester) in the FRET assay; biotin (BirA site) in the competition ELISA between human mAbs)
# T1 chain: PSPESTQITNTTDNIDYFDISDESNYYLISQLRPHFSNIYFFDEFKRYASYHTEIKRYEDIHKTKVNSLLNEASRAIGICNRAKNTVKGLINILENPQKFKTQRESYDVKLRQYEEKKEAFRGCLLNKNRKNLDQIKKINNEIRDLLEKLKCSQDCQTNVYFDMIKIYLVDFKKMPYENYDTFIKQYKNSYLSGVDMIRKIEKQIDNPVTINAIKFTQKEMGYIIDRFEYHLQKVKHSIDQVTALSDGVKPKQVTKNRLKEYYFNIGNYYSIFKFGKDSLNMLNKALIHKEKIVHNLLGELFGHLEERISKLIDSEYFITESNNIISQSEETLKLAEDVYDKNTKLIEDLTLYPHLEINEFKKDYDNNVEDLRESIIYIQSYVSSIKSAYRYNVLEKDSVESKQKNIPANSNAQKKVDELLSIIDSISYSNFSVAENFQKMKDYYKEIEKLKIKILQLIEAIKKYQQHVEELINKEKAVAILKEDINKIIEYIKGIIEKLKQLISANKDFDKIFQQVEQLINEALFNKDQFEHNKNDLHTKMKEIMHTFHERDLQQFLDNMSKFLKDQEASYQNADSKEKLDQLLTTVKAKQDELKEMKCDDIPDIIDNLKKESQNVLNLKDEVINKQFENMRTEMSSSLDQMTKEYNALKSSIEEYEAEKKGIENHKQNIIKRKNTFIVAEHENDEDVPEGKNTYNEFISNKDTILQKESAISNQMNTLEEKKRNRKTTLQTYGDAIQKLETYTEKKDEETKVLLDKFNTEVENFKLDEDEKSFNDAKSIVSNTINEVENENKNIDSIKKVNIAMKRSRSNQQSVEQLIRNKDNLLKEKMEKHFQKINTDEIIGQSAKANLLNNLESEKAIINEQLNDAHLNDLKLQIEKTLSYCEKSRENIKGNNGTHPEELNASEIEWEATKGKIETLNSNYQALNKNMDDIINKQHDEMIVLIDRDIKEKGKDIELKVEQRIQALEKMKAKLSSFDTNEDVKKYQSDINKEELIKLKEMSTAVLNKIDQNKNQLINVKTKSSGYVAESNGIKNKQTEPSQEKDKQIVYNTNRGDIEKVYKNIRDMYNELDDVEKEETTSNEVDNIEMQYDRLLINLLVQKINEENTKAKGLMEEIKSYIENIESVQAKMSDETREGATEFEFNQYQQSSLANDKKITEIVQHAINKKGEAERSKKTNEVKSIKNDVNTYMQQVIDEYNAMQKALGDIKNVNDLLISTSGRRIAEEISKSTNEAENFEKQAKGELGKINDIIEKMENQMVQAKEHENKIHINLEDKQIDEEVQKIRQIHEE
# ASSAY_INFO: BLI
One number for each entry, in nM.

For the 3 binders below, give their Kd values.
1. PvRBP2b human mAb 283284 (antibody, V domains shown) VH: QVQLQQWGAGLLKPSETLALTCTVYGGSSSGYYWNWIRQSPGKGLEWIGEISDSGSTIYNPSLESRVTMSVDTSKNQFSLKLTSVTAADTAVYYCAKAILTRYNWLDPWSQGTLVTVSS VL: DIVMTQSPSSLSASVGDRISISCRASQGVNSALAWYQQKPGKAPKLLIYDASTLESGVPSRFSGSGSGTDFALTINSLQPEDFATYYCQQFNSYPLTFGGGTKVEIK
2. PvRBP2b human mAb 241242 (antibody, V domains shown) VH: EVQLLESGGGLVQPGGSLRLSCAVSGFTFRNYALSWVRQAPGKGLDWVSTISASGGATYYADSVKGHFTISRDNSKNILYLDMKSLRAEDTAIYYCARDGGSYTPYFFLDSWGQGALVTVSS VL: SYELTQPASVSVAPGQTAQITCGGNSIGRKSIHWYQHKPGQAPVLVISYDSDRPSGIPERFSGSNSGNTATLTISKVEAGDEADFYCQVRDSDNDHVVFGGGTKLTVL
3. PvRBP2b human mAb 258259 (antibody, V domains shown) VH: EVQLLESGGGLVRPGGSQRLSCAASGFTFTPYAMTWVRQAPGKGLEWLSTISGSGGSTYYADSVKGRFTISRDNSKNMLYLQMNSLTAEDTALYYCTKDKDEYTFGHNAFDVWGQGTMVTVSS VL: SYELTQAPSVSVAPGQTARITCGGDNIGRKTVNWYQQKPGQAPVLVIYYDNDRPSGIPERFSGSNSGNMATLSISRVEVGDEADYYCQVWDSNNDHPVFGGGTKLTVV

OUT:
1. 0.246
2. 0.061
3. 0.0269

For each of the items listed, what is its Kd?
1. PvRBP2b human mAb 273264 (antibody, V domains shown) VH: EVQLLESGGGLVRPGGSQRLSCAASGFTFTPYAMTWVRQAPGKGLEWLSTISGSGGSTSYADSVKGRFTISRDNSKNILYLQMDSLRAEDTALYYCTKDKDEYTFGHNAFDVWGRGTMVTVSS VL: SYELTQAPSVSVAPGQTARITCGGDNIGRTSVHWYQQKPGQAPVLVIFYDNDRPSGIPERFSGSNSGNMATLSISRVEVGDEADYYCQVWDSNNDHPVFGGGTKLTVV
2. PvRBP2b human mAb 253245 (antibody, V domains shown) VH: EVQLVQSGAEVKKPGSSMKVSCKASGGTFNRYVFSWVRQAPGQGLEWMGGILPILETTYYAKNFKGRVTITADESTSTVYMELSSLTSEDTAVYFCARDEHDYVWGSYRPSLTGPWGQGTLVTVSS VL: QSALTQPPSTSGSPGQSVTISCTGTGIDVGGFSYVSWFQYHPGKAPKLIIFEVTKRPSGVPDRFSGSKSGNTASLTISGLQADDEAEYYCSSYAVNNNFVFGTGTKVTVL
3. PvRBP2b human mAb 237235 (antibody, V domains shown) VH: QVQLVESGGGVVQPGRSLRLSCAASGFMFNSYGMHWVRQAPGKGLEWMAFISYDGSDDYYGDSVKGRITISRDNSKNTLFLHINSLRTEDTAVYYCAKESNYGENAFDVWGHGTMVTVSS VL: QSALTQPRSVSGSPGQSVTISCTGTSNDVGFYNFVSWYQHHPGKAPKLMIYDVTERPSGVPDRFSGSKSGNTASLTISGLQAEDEAEYYCCSYAGTYTFVFGHGTKVTVL
4. PvRBP2b human mAb 243244 (antibody, V domains shown) VH: QVQLVESGGGVVQSGKSLRVSCAASGFTFSSYGMHWVRQAPGKGLEWVAFISYDGDNKYSADSVKGRLTISRDNSKNTLYLQMNSLRPEDTAVYYCAKESNYGENAFDIWGQGTMVTVSS VL: QSALTQPRSVSGSPGQSVTISCTGTSSDVGFYNFVSWYQHHPGKAPKLIIYDVSERPSGVPDRFSGSKSGNTASLSISGLQPEDEADYYCCSYAGTYTFVFGSGTKVTVL

OUT:
0.083
0.0307
0.0883
0.0366
